Data origin: ChEMBL document CHEMBL4513146

Test system: Cryptococcus neoformans
Conditions: Concentration 32 ug.mL-1; ASSAY_TEST Inhibition of Fungal Growth; detection method Resazurin; Absorption (OD600-OD570); plate type 384well; NBS; CORNING #3640
Description: Antifungal activity against Cryptococcus neoformans H99 ATCC 208821 (CO-ADD:FG_002); MIC in YNB media using NBS plates, by Resazurin OD(600-570)
Potency and affinity values are given separately.
Entries and their Inhibition values follow.
PROPERTY_NAME: Inhibition (%)

[[record]]
compound = "CCC(Sc1nnc2c(=O)n(-c3ccc(C)c(C)c3)ccn12)C(=O)Nc1ccccc1C (stereo not drawn)"
property_name = "Inhibition"
result_value = -9.85

[[record]]
compound = "CCCn1c(=O)c2sccc2n2c(CCC(=O)NC(C)C34CC5CC(CC(C5)C3)C4)nnc12 (stereo not drawn)"
property_name = "Inhibition"
result_value = -25.73

[[record]]
compound = "COc1cc(NC(=O)Cn2nc3c(SC4CCCCC4)nccn3c2=O)cc(OC)c1"
property_name = "Inhibition"
result_value = -27.94

[[record]]
compound = "O=c1n(Cc2cccc(Br)c2)nc2ccc(-c3ccccc3)nn12"
property_name = "Inhibition"
result_value = -13.38

[[record]]
compound = "CCCN(C)c1nccn2c(=O)n(CC(=O)Nc3ccc(Br)cc3)nc12"
property_name = "Inhibition"
result_value = -7.69

[[record]]
compound = "CCc1ccc(NC(=O)Cn2nc3c4cc(-c5ccc(C)c(C)c5)nn4ccn3c2=O)cc1"
property_name = "Inhibition"
result_value = -12.06

[[record]]
compound = "N#Cc1ccccc1NC(=O)Cn1nc2c(Oc3ccccc3)nccn2c1=O"
property_name = "Inhibition"
result_value = -5.65

[[record]]
compound = "CCc1ccc(N(Cc2ccc(F)cc2)S(=O)(=O)c2cccn3c(C)nnc23)cc1"
property_name = "Inhibition"
result_value = -7.64

[[record]]
compound = "COC(=O)c1sccc1NC(=O)Cn1nc2c(Oc3ccc(C)cc3)nc3ccccc3n2c1=O"
property_name = "Inhibition"
result_value = -31.95

[[record]]
compound = "COc1ccc(CNC(=O)Cn2nc3c(SC4CCCCC4)nccn3c2=O)cc1"
property_name = "Inhibition"
result_value = -15.36

[[record]]
compound = "O=C(Cn1nc2ccc(C(=O)NCc3ccccc3)cn2c1=O)Nc1ccc2c(c1)OCO2"
property_name = "Inhibition"
result_value = -36.87

[[record]]
compound = "O=C(CSc1nnc2c(=O)n(-c3ccccc3)ccn12)Nc1ccc(Br)cc1"
property_name = "Inhibition"
result_value = -15.78

[[record]]
compound = "O=C(Cn1nc2ccc(SC3CCCCC3)nn2c1=O)Nc1ccc(F)c(F)c1"
property_name = "Inhibition"
result_value = -16.79

[[record]]
compound = "COc1ccccc1N1CCN(C(=O)CSc2nc3ccccc3n3c(C(C)C)nnc23)CC1"
property_name = "Inhibition"
result_value = -16.67

[[record]]
compound = "Cc1cc(C)cc(Nc2nc(C)cc3nn(CC(=O)Nc4cc(F)ccc4F)c(=O)n23)c1"
property_name = "Inhibition"
result_value = -7.31

[[record]]
compound = "Cc1c(Cl)cccc1-n1ccn2c(=O)n(Cc3ccc(F)cc3)nc2c1=O"
property_name = "Inhibition"
result_value = -16.32

[[record]]
compound = "COc1ccc(C(=O)CSc2nnc3c(=O)n(-c4ccc(F)c(F)c4)ccn23)cc1"
property_name = "Inhibition"
result_value = -11.53

[[record]]
compound = "CC(=O)c1cccc(NC(=O)CSc2nnc3ccc(C(=O)Nc4cccc(F)c4)cn23)c1"
property_name = "Inhibition"
result_value = -6.79

[[record]]
compound = "COc1cc(OC)c(NC(=O)Cn2nc3ccc(SC4CCCCC4)nn3c2=O)cc1Cl"
property_name = "Inhibition"
result_value = -6.25

[[record]]
compound = "O=C(Cn1nc2c(SCc3ccc(Cl)cc3)nccn2c1=O)Nc1ccccc1F"
property_name = "Inhibition"
result_value = -4.96

[[record]]
compound = "CCc1ccccc1Sc1nccn2c(=O)n(CC(=O)NCc3ccc(OC)cc3)nc12"
property_name = "Inhibition"
result_value = -1.62

[[record]]
compound = "O=S(=O)(c1ccc2nncn2c1)N(Cc1ccccc1)c1ccc(F)c(F)c1"
property_name = "Inhibition"
result_value = -6.45

[[record]]
compound = "O=C(CSc1nnc2c(=O)n(-c3ccccc3)ccn12)Nc1ccc(Cl)cc1"
property_name = "Inhibition"
result_value = -17.38

[[record]]
compound = "CC(C)c1ccc(N(Cc2ccc(Cl)cc2)S(=O)(=O)c2cccn3cnnc23)cc1"
property_name = "Inhibition"
result_value = -6.18

[[record]]
compound = "CCc1ccc(NC(=O)Cn2nc3ccc(SC4CCCCC4)nn3c2=O)cc1"
property_name = "Inhibition"
result_value = -12.68

[[record]]
compound = "O=S(=O)(c1ccc2nncn2c1)N(Cc1ccccc1F)c1ccc(F)c(F)c1"
property_name = "Inhibition"
result_value = -2.71

[[record]]
compound = "Cc1[nH]c2ccccc2c1C(=O)CSc1nnc2c(=O)n(-c3ccc(Br)cc3)ccn12"
property_name = "Inhibition"
result_value = -12.52

[[record]]
compound = "COc1ccc(Cn2nc3ccc(-c4ccccc4)nn3c2=O)cc1F"
property_name = "Inhibition"
result_value = -0.36

